Data provenance is ChEMBL document CHEMBL2311513.

molecular target: L-lactate dehydrogenase A chain (Homo sapiens, UniProt P00338); assay: Inhibition of LDH-A (unknown origin) by enzyme assay
The entries below come with measured IC50 values attached.
Form entry: value (µM) — number only.

// below: answered molecules
COc1cc(OC[C@@H](O)[C@@H](O)[C@H](O)[C@H](O)CNc2cc(F)cc(-c3ccc(C(=O)O)cn3)c2)c(Cl)cc1NC(=O)CSc1ccc(C(=O)O)cn1 ... 0.12
COc1cc(OCCCNC(=O)COc2cc(F)cc(-c3ccc(C(=O)O)cn3)c2)c(Cl)cc1NC(=O)CSc1ccc(C(=O)O)cn1 ... 2.4
COc1cc(OCC(O)CO)c(Cl)cc1NC(=O)CSc1ccc(C(=O)O)cn1 (configuration not stated) ... 342
COc1cc(OCCCOCCCOc2cc(F)cc(-c3ccc(C(=O)O)cn3)c2)c(Cl)cc1NC(=O)CSc1ccc(C(=O)O)cn1 ... 59

Here's the next entry for you.
Problem: Retrieve IC50 measured for COc1cc(OC[C@@H](O)[C@@H](O)[C@H](O)[C@H](O)CNc2cc(F)cc(-c3ccccn3)c2)c(Cl)cc1NC(=O)CSc1ccc(C(=O)O)cn1 and print it.
Solution: 13
